Data provenance is the supplement of paper PMC6555819.

# Test system: RARg homodimer (NR concentration 270 nM)
# test-summary: PBM binding z-score (relative to random genomic background probes); higher = stronger binding; sequences stand for … in GC…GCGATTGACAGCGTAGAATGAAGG
Would you mind telling me the reported PBM binding z-score of each entry?
One number for each entry.

Take a look at these entries with their results.
> print(dat)
                     residue.sequence  reported.result
1  TAGCATAGGTCATGGGCCAGTATACCACGCGAAC             4.93
2  TCTTCTAGATCAATAGAGGTTAAGAAAGTGCGCT            0.808

Please give PBM binding z-score for each item listed below.
1. TCTGCTAGGTCAACGATGGTAAGCTAATCTGCTA
2. CGTCAAAGTTCAACTAAGGTAAGGTAAAGCACGC
3. ATGTCTAGGTAAAGTTCAGTGAAAGATCGATAGA
4. TCGACTAGGTTACCAATGGGGCATTCAGCTTTCT
5. CCCATTAGTTGACCATAAGGGCAACCGAAGCTCG
6. CCTAGCAGGCCAATTTGGGTCACTCAAGGCTTGA
7. CCTATTGGGCCAAAGGTCATTGATTCCAATGCTC

Solution:
1: 4.83; 2: 6.23; 3: 2.62; 4: 0.432; 5: 0.963; 6: 1.21; 7: 4.73

Please give PBM binding z-score for each item listed below.
1. GCTGCTAGGTCAACTGATGGTCAGCTGAAGCTCG
2. TCTCGGAGGACACGAAGGTCAGAACTTTCCAGAG

Solution:
[5.51, 3.24]
